Each entry below lists one item and its recorded pKd value.
Target: COVID-19 S1 Spike Protein Mutant E484K (SARS-CoV-2), P0DTC2
Assay: FP direct binding
pKd: −log10 of the molar value. Non-standard residues stand in square brackets, D forms with d. No end group written: not given here. Sar = CNCC(=O)O
PROPERTY_LABEL: pKd

ACDVCGLNAFNRCA[Sar][Sar][Sar][Sar][Sar][Sar][KFl] (cysteine pairing not given here) [BCY16287]; 7.26
ACEDHDWVYCSTCA[Sar][Sar][Sar][Sar][Sar][Sar][KFl] (cysteine pairing not given here) [BCY15299]; 6.32
ACRQSQCDWWAIRSFCA[Sar][Sar][Sar][Sar][Sar][Sar][KFl] (cysteine pairing not given here) [BCY15324]; 5.83
